test system: MDA-MB-231; experiment: NCI tumour cell line growth inhibition, 48 h
Active and inactive are the calls of the source. No stated cut-off is given here; in the data, active = GI50 up to about 1.1 µM and inactive = higher.
Outcomes: active, inactive

>  <compound>
[N-]=[N+]=Nc1c(C=O)c(=O)n2c3c(cccc13)CCC2

>  <label_value>
inactive

$$$$
>  <compound>
COc1cccc2c1C(=O)c1c(O)c3c(c(O)c1C2=O)C[C@@](O)(C(=O)CO)CC3OC1CC(O)C(O)C(C)O1 (stereo not given in full)

>  <label_value>
active

$$$$
>  <compound>
Cc1c(C)c(S(=O)(=O)N(CCCCCCN)OCCCN)c(C)c2c1OC(C)(C)CC2

>  <label_value>
inactive

$$$$
>  <compound>
O=C1c2nc3n(c2C(=O)c2c1nc1n2CCC1)CCC3

>  <label_value>
inactive

$$$$
>  <compound>
NC1=NN(c2ccccc2)C2(O)c3ccncc3C3=NN(c4ccccc4)C(=O)C132 (stereo not given)

>  <label_value>
inactive

$$$$
>  <compound>
O=[N+]([O-])c1ccc2nc3ccc([N+](=O)[O-])cn3c2c1

>  <label_value>
inactive

$$$$
>  <compound>
CC12CC3c4ccccc4CN1C3(c1ccccc1)OC2=O (stereo not given)

>  <label_value>
inactive

$$$$
>  <compound>
Cc1c(OCc2ccccc2)c(=O)ccn1CCc1c[nH]c2ccccc12

>  <label_value>
inactive

$$$$
>  <compound>
N=c1oc2cc(O)ccc2cc1C(=O)NCc1ccccc1

>  <label_value>
inactive

$$$$
>  <compound>
COc1ccc(C2CCc3nc4nc(N)nc(N)c4cc3C2)cc1 (stereo not given)

>  <label_value>
inactive

$$$$

* * *

A collection of molecules and their measured GI50
tested on: M19-MEL; test: NCI tumour cell line growth inhibition, 48 h
The source made the active and inactive calls. Rule as the data show it: active = GI50 up to about 1.1 µM and inactive = higher.

>  <molecule>
O=C1Cc2c([nH]c3ccccc23)-c2ccccc2N1

>  <GI50>
53.1 µM (inactive)

$$$$
>  <molecule>
CC1(Sc2ccccc2)CN(Cc2ccccc2)C1=O (stereo not given)

>  <GI50>
> 100 µM (inactive)

$$$$
>  <molecule>
COc1c(I)c(OC)c2c(c1I)O[C@@H]1OCC[C@H]21

>  <GI50>
23.8 µM (inactive)

$$$$
>  <molecule>
Nc1nnc(N)n1NC(=O)C(=O)Nc1ccc([N+](=O)[O-])cc1

>  <GI50>
> 100 µM (inactive)

$$$$
>  <molecule>
Brc1ccc2c(c1)C1(c3cc(Br)ccc3-2)c2cc(Br)ccc2-c2ccc(Br)cc21

>  <GI50>
> 100 µM (inactive)

$$$$
>  <molecule>
CCOC(=O)c1ccc(N[C@@H]2c3cc4c(cc3C(c3cc(OC)c(O)c(OC)c3)[C@H]3C(=O)OCC32)OCO4)cc1 (stereo not given in full)

>  <GI50>
1.75 µM (inactive)

$$$$
>  <molecule>
CCCNC(/C=C/[Si](C)(C)C)CO.CCCNCC(O)/C=C/[Si](C)(C)C (stereo not given)

>  <GI50>
> 100 µM (inactive)

$$$$
>  <molecule>
Cc1cn(C2CC(n3cncn3)C(C(C)O)O2)c(=O)[nH]c1=O (stereo not given)

>  <GI50>
> 100 µM (inactive)

$$$$
>  <molecule>
COC1=CC(=O)C2C(C1=O)C(c1ccc(Cl)cc1)[C@@H]2C (stereo not given in full)

>  <GI50>
33.7 µM (inactive)

$$$$
>  <molecule>
Cc1cccc(C(C)C)c1NC(=O)C(=O)CC(=O)c1c(C)[n+]([O-])c2ccccc2[n+]1[O-]

>  <GI50>
19.8 µM (inactive)

$$$$
>  <molecule>
C[N+](C)=c1nc(N2CCc3ccccc3C2)ss1.[O-][Cl+3]([O-])([O-])[O-]

>  <GI50>
> 100 µM (inactive)

$$$$
>  <molecule>
C[C@@]12CCCC(=O)N1[C@@H](CO)C(c1ccccc1)O2 (stereo not given in full)

>  <GI50>
> 100 µM (inactive)

$$$$
>  <molecule>
O=C(CC1(O)C(=O)Nc2ccccc21)c1ccccc1O (stereo not given)

>  <GI50>
> 100 µM (inactive)

$$$$
>  <molecule>
CC1(C)CC(=O)C/C(=N/c2ccc([N+](=O)[O-])cc2)C1

>  <GI50>
66.2 µM (inactive)

$$$$
>  <molecule>
O=C(CSc1nc(-c2ccccc2)c(-c2ccccc2)[nH]1)N/N=C/c1ccc(O)cc1

>  <GI50>
19.4 µM (inactive)

$$$$
